Provenance of the data: patent US20200331925A1

- subject of test: CDK2/Cyclin E (Homo sapiens)
- assay notes: CDK2/Cyclin E kinase assay (Nanosyn, Caliper microfluidic)
- condition label: 12-point dose-response, ATP at Km (100 μM), 3 hr
pIC50: −log10 of the molar value.
measurement kind: pIC50

chem smiles | measurement kind | obs value
O=C1NCC2(CCCCC2)n2c1cc1cnc(N[C@@H]3CCCN[C@@H]3c3ccccc3)nc12 | pIC50 | < 4.00
NS(=O)(=O)Cc1cccc(Nc2ncc3cc4n(c3n2)C2(CCCCC2)CNC4=O)c1 | pIC50 | < 4.00
O=C1NCC2(CCCCC2)n2c1cc1cnc(NC(=O)[C@H]3CNCC[C@H]3c3ccccc3)nc12 | pIC50 | < 4.00
O=C1CC[C@H](Nc2ncc3cc4n(c3n2)C2(CCCCC2)CNC4=O)CN1 | pIC50 | 6.62

###

- subject of test: CDK5/p35 (Homo sapiens)
- Sequence (Q00535 whole entry): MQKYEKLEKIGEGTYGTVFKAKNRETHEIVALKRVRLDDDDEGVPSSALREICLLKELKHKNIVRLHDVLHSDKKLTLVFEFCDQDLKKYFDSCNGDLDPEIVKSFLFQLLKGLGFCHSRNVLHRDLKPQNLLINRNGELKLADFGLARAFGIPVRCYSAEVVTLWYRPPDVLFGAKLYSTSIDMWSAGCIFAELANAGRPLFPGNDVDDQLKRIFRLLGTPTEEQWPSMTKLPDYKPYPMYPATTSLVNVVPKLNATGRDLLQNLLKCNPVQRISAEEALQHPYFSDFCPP
- Sequence (Q15078 whole entry partner): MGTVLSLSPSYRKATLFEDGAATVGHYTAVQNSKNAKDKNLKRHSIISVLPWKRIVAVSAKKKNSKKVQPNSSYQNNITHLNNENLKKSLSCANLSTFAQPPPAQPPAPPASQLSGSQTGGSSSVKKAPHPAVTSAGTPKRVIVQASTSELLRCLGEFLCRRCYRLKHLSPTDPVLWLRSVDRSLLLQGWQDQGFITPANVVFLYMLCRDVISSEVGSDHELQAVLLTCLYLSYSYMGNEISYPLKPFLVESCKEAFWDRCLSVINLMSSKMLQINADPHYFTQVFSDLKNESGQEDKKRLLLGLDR
- assay notes: CDK5/p35 kinase assay (Nanosyn, Caliper microfluidic)
- condition label: 12-point dose-response, ATP at Km (20 μM), 3 hr
pIC50: −log10 of the molar value.
Answer No if pIC50 is under 6, and Yes if it is 6 or more.

molecule | group
O=C1NCC2(CCCCC2)n2c1cc1cnc(N[C@H]3CCCNC3=O)nc12 [Compound 23] | No
O=C1NCC2(CCCCC2)n2c1cc1cnc(N[C@H]3CC[C@H](NCc4cccnc4)CC3)nc12 [Compound 21] | Yes
O=C1NCC2(CCCCC2)n2c1cc1cnc(N[C@H]3CC[C@H](Nc4ncc(F)cn4)CC3)nc12 [Compound 19] | Yes
O=C1NCC2(CCCCC2)n2c1cc1cnc(NC(=O)[C@@H]3CCNC3)nc12 [Compound 32] | No
O=C1NCC2(CCCCC2)n2c1cc1cnc(NC(=O)[C@H]3CNCCO3)nc12 [Compound 35] | No
O=C1NCC2(CCCCC2)n2c1cc1cnc(N[C@H]3CC[C@H](NCc4ccccc4F)CC3)nc12 [Compound 20] | Yes
CN(C)[C@H]1CC[C@H](Nc2ncc3cc4n(c3n2)C2(CCCCC2)CNC4=O)CC1 [Compound 45] | Yes

###

- subject of test: CDK4/Cyclin D1 (Homo sapiens)
- Sequence (P11802 whole entry): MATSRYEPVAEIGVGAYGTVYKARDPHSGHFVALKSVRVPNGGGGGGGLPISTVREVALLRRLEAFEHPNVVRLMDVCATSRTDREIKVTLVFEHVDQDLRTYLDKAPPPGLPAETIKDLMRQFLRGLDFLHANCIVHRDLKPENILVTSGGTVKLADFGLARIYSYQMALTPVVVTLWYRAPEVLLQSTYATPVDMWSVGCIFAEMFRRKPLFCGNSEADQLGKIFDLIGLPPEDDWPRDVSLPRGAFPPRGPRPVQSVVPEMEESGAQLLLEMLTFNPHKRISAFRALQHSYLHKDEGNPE
- Sequence (P24385 whole entry partner): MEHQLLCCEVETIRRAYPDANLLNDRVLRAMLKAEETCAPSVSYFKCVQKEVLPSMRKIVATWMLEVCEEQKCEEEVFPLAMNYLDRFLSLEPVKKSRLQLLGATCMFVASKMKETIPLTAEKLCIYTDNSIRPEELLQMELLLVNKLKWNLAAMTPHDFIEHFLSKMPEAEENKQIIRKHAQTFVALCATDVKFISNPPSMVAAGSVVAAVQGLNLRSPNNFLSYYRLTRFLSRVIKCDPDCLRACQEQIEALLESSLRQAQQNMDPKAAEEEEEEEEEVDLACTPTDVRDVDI
- assay notes: CDK4/Cyclin D1 kinase assay (Nanosyn, Caliper microfluidic)
- Assay type: biochemical
- condition label: 12-point dose-response, ATP at Km (200 μM), 3 hr; Table 4
pIC50: −log10 of the molar value.
This listing pairs molecules with measured pIC50.
measurement kind: pIC50

chem smiles | obs value
CS(=O)(=O)N[C@H]1CC[C@H](Nc2ncc3cc4n(c3n2)C2(CCCCC2)CNC4=O)CC1 | 7.16
O=C1NCC2(CCCCC2)n2c1cc1cnc(N[C@H]3CC[C@H](NCc4cccnc4)CC3)nc12 | 7.85
C[C@H]1CC[C@H](Nc2ncc3cc4n(c3n2)C2(CCCCC2)CN=C4)CC1 | 6.17
O=C1NCC2(CCCCC2)n2c1cc1cnc(N[C@H]3CC[C@H](NC4CCOCC4)CC3)nc12 | 7.89
O=C1CC[C@H](Nc2ncc3cc4n(c3n2)C2(CCCCC2)CNC4=O)CN1 | 6.60
O=C1NCC2(CCCCC2)n2c1cc1cnc(N[C@H]3CC[C@H](Nc4ncc(F)cn4)CC3)nc12 | 8.07
O=C1NCC2(CCCCC2)n2c1cc1cnc(NC(=O)[C@@H]3CCCNC3)nc12 | 5.54
O=C1NCC2(CCCCC2)n2c1cc1cnc(N[C@@H]3C[C@@H](O)CNC3=O)nc12 | 7.00
O=C1NCC2(CCCCC2)n2c1cc1cnc(NC(=O)[C@H]3CNCC[C@H]3c3ccccc3)nc12 | 5.05
O=C1NCC2(CCCCC2)n2c1cc1cnc(NC(=O)[C@H]3CCNC3)nc12 | 5.48
O=C1NCC2(CCCCC2)n2c1cc1cnc(N[C@H]3C[C@@H](O)CNC3=O)nc12 | 6.09
O=C1NCC2(CCCCC2)n2c1cc1cnc(NC(=O)[C@H]3CNCCN3)nc12 | 5.03
O=C(C[C@@H]1CCCN1)Nc1ncc2cc3n(c2n1)C1(CCCCC1)CNC3=O | 5.54
O=C1NCC2(CCCCC2)n2c1cc1cnc(NC(=O)[C@H]3CNCCO3)nc12 | 4.57
